The following molecules are shown together with reported TGI values.
Test system: M14 melanoma
Test: NCI tumour cell line growth inhibition, 48 h

molecule | TGI
OC12C3C4CC5C(C4[C@@H]1Br)C2[C@@](O)(c1c(F)c(F)c(F)c(F)c1F)C53 (stereo partly drawn) | > 100 µM
N#CC1=C(N)NC(=S)NC12Nc1ccccc1O2 (stereo not drawn) | > 100 µM
COC1/C(=C\C(=O)OC(C)(C)C)c2ccccc2N1C(C)=O (stereo not drawn) | > 100 µM

----------
System: MCF7 breast
Assay: NCI tumour cell line growth inhibition, 48 h
The following compounds are shown together with reported TGI values.

compound | TGI
NCCCC(=O)Nc1ccncc1 | > 100 µM
Cc1ccccc1C(=O)C#Cc1cn(C2CC(O)C(CO)O2)c(=O)[nH]c1=O (stereo not drawn) | > 100 µM
[N-]=[N+]=C(C(=O)OCC#CCOC(=O)C(=[N+]=[N-])S(=O)(=O)c1ccccc1)S(=O)(=O)c1ccccc1 | > 10 µM
